Test: in vivo
Conditions: female, SD, rat, po, 250 mg/kg
Property label: Cmax (ng/mL)

• COc1cc(/C=C/C(=O)CC(=O)/C=C/c2ccc(O)c(OC)c2)ccc1O [Control, curcumin] = 58.1

====

Assay: in vivo
Details: female, SD, rat, po, 250 mg/kg
Property label: Tmax (min)

- COc1cc(/C=C/C(=O)CC(=O)/C=C/c2ccc(O)c(OC)c2)ccc1O [Control, curcumin]: 36
